Test system: NCI-H23
Assay: NCI tumour cell line growth inhibition, 48 h
Calls of active or inactive are those of the source. Rule as the data show it: active = GI50 up to about 1.1 µM and inactive = higher.
Answer with one of the outcomes given here: 1 = active, -1 = inactive

Before answering, review these 6 worked examples.
>>> answer_label("Cc1c(Cl)c(C)c(Cl)c(O)c1Cl")
-1
>>> answer_label("Oc1cc(-c2ccccc2)nc2ncccc12")
1
>>> answer_label("O=C(O)CC1OCC=C2C[N+]3([O-])CCC45c6ccccc6NC4C1C2CC53 (stereo unspecified)")
-1
>>> answer_label("COc1ccc2oc(C(=O)N3CC(CCl)c4ccc([N+](=O)[O-])cc43)cc2c1 (stereo unspecified)")
-1
>>> answer_label("ClC(Cl)[Si]12OCCN(CCO1)CCO2")
-1
>>> answer_label("COC(=O)C1(C(=O)OC)CC2c3c(c4ccccc4n3C)CC(C1=O)N2Cc1ccccc1 (stereo unspecified)")
-1

Ask | What call does the record list for CC12CCCCC1(C)C2Sc1ccccc1 (stereo unspecified) ?
Reply | -1

Ask | Request: "CCOP(=O)(OCC)/C(C#N)=C/c1cnc(-c2ccccc2)[nH]1"
Reply | -1

Ask | Now try "CN(C)CCCn1c2c3ccccc3ccc2c2oc(=O)c3ccccc3c21" .
Reply | -1

Ask | Cool, now "O=C(N=C1N(c2ccccc2)C(=O)C(=O)N1c1ccccc1)c1ccccc1"
Reply | -1

Ask | Also CCCCCCCCC(C)CCCCCCCCC(=O)OCC(COP(=O)([O-])OCC[N+](C)(C)C)OC(=O)CCCCCCCCC(C)CCCCCCCC (stereo unspecified) , if possible.
Reply | -1

Ask | What would you report for "CCN(CC)CCNC(=O)c1ccc([N+](=O)[O-])cc1OC" ?
Reply | -1

Ask | Would you kindly repeat that for "CCOC(=O)c1ccc(/N=C/C=C(\Nc2ccc(C(=O)OCC)cc2)c2ccc3ccccc3c2)cc1" ?
Reply | -1

Ask | Could you do the same for "O=C(O)C(=O)/C=C\c1ccc(Cl)cc1" , please?
Reply | -1

---

Test system: HCC 2998
Assay: NCI tumour cell line growth inhibition, 48 h
Activity calls are given as the source filed them. No stated cut-off is given here; in the data, active = GI50 up to about 1.1 µM and inactive = higher.
A correct response names exactly one class from active, inactive

Before answering, review these 3 worked examples.
>>> answer_label("CCCCNC(=O)C1C(=O)N(CCCC)C(=O)/C1=N\\N (centres undefined)")
"inactive"
>>> answer_label("CC(=O)OC1c2ccccc2CC2(OC(C)=O)c3ccccc3C12 (centres undefined)")
"inactive"
>>> answer_label("CN(C)c1ccc(/C=C2\\N=C(N/N=C/c3ccccc3)NC2=O)cc1")
"inactive"

Ask | For CN1CCN(CCSC2Cc3cc(Cl)ccc3Sc3ccccc32)CC1 (centres undefined) , which call appears in the assay record?
Reply | inactive

Ask | How about "O=C1c2cccc(NCCCNCCO)c2C(=O)c2cccc(NCCCNCCO)c21" ?
Reply | active

Ask | And then C=CCC1OC(C)(C)Oc2ccc(OCOCCOC)cc21 (centres undefined) , what is it?
Reply | inactive

Ask | What about this compound? "Cc1cccc2c1C(=O)/C(=C/c1ccccc1C(=O)O)C2"
Reply | inactive

Ask | Quick one: Cc1ccc2[nH]c(=O)c(C(C#N)c3ccccc3)nc2c1 (centres undefined)
Reply | inactive

Ask | Now consider CC(O)CN1c2ccccc2Sc2ccccc21 (centres undefined) .
Reply | inactive

Ask | // query: "O=C1CCc2cc3c(cc21)CC1(Cc2ccccc2C1)C3"
Reply | inactive

Ask | And then Nc1nc(=O)n(C2OC(CO)C(O)C2O)cc1F (centres undefined) , what is it?
Reply | inactive

Ask | Proceed to "Cc1c(CN)c(C)c(CN)c(C)c1CN"
Reply | inactive

Ask | Another: Cc1cc2ncn(-c3nc4ccccc4nc3C(C#N)S(C)(=O)=O)c2cc1C (centres undefined)
Reply | inactive

Ask | Another compound to check: "N#C[BH2-][n+]1ccc(C(=O)NNCc2ccccc2)cc1"
Reply | inactive

Ask | For C[C@]12CC/C(=N\OCCN3CCCC3)C=C1CCC1C2CC[C@@]2(C)C1CC[C@]2(C)O (some centres undefined) then?
Reply | inactive

Ask | Please give the result for COc1cccc2c(=O)c3c(n(C)c12)OC(C(C)C)C3 (centres undefined) too.
Reply | inactive

Ask | What about "NCCN1CC2CCC(CC2)C1" ?
Reply | inactive

These data points were gathered from ChEMBL document CHEMBL1201862.
